# Procedure text: yeast display, Sf9 membrane polyspecificity reagent, FACS + sequencing; frameworks hold sequencing errors
Reported endpoint: polyreactivity (PSR sort gate)

QVQLVESGGGLVQAGGSLRLSCAASGRTFAWYTMGWYRQAPGKESELVAAISGSGGSTYYADSVKGRFTISRDNANNTVYLQMNSLKPDDTAVYYCARRVDSYYGHTRYYYWGQGTQVTVSS = high polyreactivity
QVQLVESGGGLVQAGGSLRLSCAAYGSIFDHYAMVWNRQAPGKERELVAAITYSDGSTYYADSVKGRFTISRDNAKNTVYLQMKSLKPEDTAVYYCAAYPRGSQRYNYWGQGTQVTVSS = high polyreactivity
QVQLVESGGGLVQAGGSLRLSCAASGSIFQRNTIGWYIQAPGKERELVAAISRSGGSTYYADSVKGLFTISRDNAKITVYLQMKSLKPEDTEVYYCAVSGGTSRRYYYWGQGTKVTVSS = high polyreactivity

====

# Procedure text: yeast display, Sf9 membrane polyspecificity reagent, FACS + sequencing; frameworks hold sequencing errors
Reported endpoint: polyreactivity (PSR sort gate)

QVQLVESGGGLVQAGGSHRLSCAASGFTFNKYAMGWYRQAPRKERELVAAISSSGGRTSYADSVKGRFTISRDNAKNTVYLQMNSVKPEDTAVYYCNKVSTADMGYWGQGTQVTVSS = high polyreactivity
QVQLVESGGGLVQAGGSLRLSCAASGFTFNKYAMGCYRQAPGKERELVAAISGSGGRTYYADSVKGRFTISRDNAKNTVYLQMNSLKPEDTAVYYCAAQRSVKVDYWGQGTQVTVSS = high polyreactivity

====

# Procedure text: yeast display, Sf9 membrane polyspecificity reagent, FACS + sequencing; frameworks hold sequencing errors
Reported endpoint: polyreactivity (PSR sort gate)

QVQLVESGAGLVQAGGSLRLSCAASGRTIRSYAMGWYRQATGKERELVAAISSGGRTYYADSVKGRFTISRDNAKNNVYLQMNSLKPEDTAVYYCAVRYRVYIFQYGYWGQGTQVTVSS = high polyreactivity
QVQHVESVGGLVQAGGSLRLSSATSGSIFITNAMGCYRQPPGKESELVAAIRDSGDRTYYADSVKGRFTISRDNGKNNVSLQMNSLKPEDTAVYYCNARCQEPLNYDYWGQGTQGTVSS = low polyreactivity
QVQLVESGGGLVQAGGSLRLSCAASGSTFGYYAMGWYRPAPGKERELVAAISSSAGTTYYADSVKGCFTISRDNAKNTVYLLMNRLKPEDTAVFYCAADAVSGHEYWGQGTQVTVSS = low polyreactivity
QVQLVESGGGLDQAGGSLRLSCAASGRIFGYYVMGWYRQAPGKEREFVAAISRSGGSTYYADSVKGRFTISRDNAKTTVYLQMNSLKPEDTAVYYCAKRVSTYGFSGYDYWGQGTQVTVSS = high polyreactivity

Lab note: next sequence to report on.
Need polyreactivity (PSR sort gate) of `QVQLVESGVGLVQAGGSLRLICAASGSIFWSNAMGWYTQAPGKERELVAAISSGGSTYADSVKGRFTISRDNAKNTVYLQMNSLKPEDTAVYYCNADVLYGDSYRGGYWGQGTQVTVSS` , thanks.
low polyreactivity

====

# Procedure text: yeast display, Sf9 membrane polyspecificity reagent, FACS + sequencing; frameworks hold sequencing errors
Reported endpoint: polyreactivity (PSR sort gate)

These recorded examples may help you get a feel for the data.
QVQLVESWGGLVHAGGSLPLSCADSGITFFYYAMGWYRQAPGKEREFVAAISTSGGRTYYADSVKGRFTISRDNAKNTVYLQMNSLKPEDTAVYYCAARSRVPPAGPRYDYWGQGTQVTVSS = high polyreactivity
QVQLVESGGGLVQAGGSLRLSCAASGFTFWSYAMGWYRPAPGKERELVAAISRGGSTSYADSVKGRFTISRDNAKNTVYLLMNSLKPEDTAVYYCAALRPYRNDKGDYWGQGTQVTVSS = high polyreactivity
QVQLVESGGGLVQAGGSLRLSCAASGSTFVPYAMGWYRQAPGKEREFVAGITWSVGSTYYADSVKGRFTISRDNAKNTVYLQMNSLKPEDTAVYYCNAEIYAYFLWWYGYWGQGTQVTVSS = low polyreactivity
QVQLVESGGGLVQAGGSLRLSCAASGRTFPTNMGWYRQAPGKERELVATITGGGGSTIYADSVKGRFTISRDNAKNTVYLQMNSLKPEDTAVYYCAKTLSPEGVPYDYWGQGTQVTVSS = low polyreactivity

Need polyreactivity (PSR sort gate) of `QVQLVESGGGLVQAGGSLRLSCAASGLTFPSNAMGWYRQAPGKERELVAAISKRGGRKYYADSVKGRFTISRDNAKNTVYLQMNSLKPEDTAVYYCATPYAYPGTVQYARYNYWGQGTQVTVSS` , thanks.
high polyreactivity

Need polyreactivity (PSR sort gate) of `QVQLVESGGGLVQAGGSLRLSCAASGITFPANAMGWYRQAPGKQWELVAAISSYGGSTYYADSVKGRFTISRDNEKNTVDLQMNSLKPEDTAVYYCAAYLSSLGRKYYYWGQGTQVTVSS` , thanks.
high polyreactivity

Need polyreactivity (PSR sort gate) of `QVQLVESGGGLVQAGGSLRLSCAASGSIFYYNTMGWSRQSPGKERELVAAINTSGGSTYYADSVKGRFTISRDNATNTDYVQLNSLKPEDTAVYYCAVRYRYRFVAKGYWGQGTQVTVSS` , thanks.
high polyreactivity

Need polyreactivity (PSR sort gate) of `QVQLLESGGGLVQAGGSLRVSCAASGFTFSRNVMGWYRQAPGKERELVAAITSGSTYYADSVKGRFTISRDNAKNTVYLQMNRLKPEDTAVYYCAKRGRLRNYDYWGQGTQVTVSS` , thanks.
high polyreactivity

Need polyreactivity (PSR sort gate) of `QVQLVESGGGLVQAGGSLRLSCAASGRTLTLNAMGWYRQAPGKERELVAAISGSGGRTFYADSVKGRFTISRDNAKNTVYLQMNSLKPEDTAVYYCAADYFYLKWYEYWGQGTQVTVSS` , thanks.
high polyreactivity

====

# Procedure text: yeast display, Sf9 membrane polyspecificity reagent, FACS + sequencing; frameworks hold sequencing errors
Reported endpoint: polyreactivity (PSR sort gate)

These recorded examples may help you get a feel for the data.
QVQLVESGGGLVQAGGSLRLSCAASGYIFAGNAMGWYRQAPGKERELVAVITRGGRTYYADSVKGRFTISRDNAKNTVYLQMNSLKPEDTAVYYCAKLVSLAGRIYGYWGQGTQVTVSS = high polyreactivity
QVQLVESGGGLVQAGGSLRLSCAASGSIFGYYAMGWYRQAPGKERELVASISWSGTSTYYADSVKGRFTISRDNAKNTVYLQMNSLKPEDTAVYYCATKGLFTNSPLYVSAYDYWGQGTQVTVSS = low polyreactivity
QVQLVESGGGLVQAGGSLRLSCAAYGSTFNGNAMGWYRQAPGKERELVARISFDGTSTYYADSVKGRFTISRDNAKNTVYLQMNSLKPEDTAVYYCNVMFPRDHGFPGYGYWGQGTQVTVSS = low polyreactivity
QDQLVESGGGLVQAGGSLRLSCAASGSIFDRNAMGWYRQAPGKERELVAAITSRGGRTYYADSVKGRFTISRDNAKNTVYLQMNSLKPEDTAVYYCNAVYSQSGYFYRFDYWGQGTQVTVSS = high polyreactivity

Need polyreactivity (PSR sort gate) of `QVQLVESGGGLVQAGGSLRLSCAASGSIFRKYTMGWYRQAPGKERELVAAINTNGGSTYYADSVKGRFTISRDNAKNTVYLQMNSLKPEDTAVYYCRAWAQNQYNYWGQGTQVTVSS` , thanks.
high polyreactivity

====

# Procedure text: yeast display, Sf9 membrane polyspecificity reagent, FACS + sequencing; frameworks hold sequencing errors
Reported endpoint: polyreactivity (PSR sort gate)

These recorded examples may help you get a feel for the data.
QVQLVESGGGLVQAGGSLRLSCAASGSTFKFNAMGWYRQAPGKETELVATITSRGSRTYYADSVKGRFTISRDNAKNTVYLQMNSLKPEDTAVYYCAARVFRPYGSLYDYWGQGTQVTVSS = high polyreactivity
QVQLVESGGGLVQAGGSLRLSCAASGFIFSRYAMGWYRQAPGKVRELVASISWGGGSTSYADSVKGRFTISRDNAKNTVYLQMNSLKPEDTAVYYCNARVRSHRFNYWGQGTQVTVSS = high polyreactivity
QVQRVESGGGLVQAGGRLRLSCAASGRIFIYYAMGWYRQAPGKERELVAAISSSGASTYYADSVKGRFTISRDNAKNTVYLQMISLKPEDTAVYYCAALYYRGGAFPLDYWGQGTQVTVSS = low polyreactivity
QVQLVESGGGLVQAGGSLRLSCAASGFIFAYYAMGWYRQAPGKERELVAAISSRGGTYYADSVKGPFTISRDNAKNTVYLQMNSLKPEDTAVYYCAAASYTWVSLGYEYWGQGTQVTVSS = high polyreactivity
QVQLVESGGGLVQAGGSLRLSCAASGFTFYRYAMGWYRQAPGKESELVAAISGSGGSTYYADSVKGRFTISRDNAKNTVYLQMNSLKPEDTAVYYCNTVWFYGAKYDYWGQGTQVTVSS = high polyreactivity
QVQLVESGGGLVKAGGSLLLSCAASGSTFRVNFMGWYRKSPGKERELVAAITTSGGSKYYADSVKGRFTITRDNAKNSVFLQMNSEKLDDTAVYFCNTTYPSGWGPETDYWGQGIQVTVSS = low polyreactivity
QVQLVESGGGLVQAGGSLRLSCAASGRIFGTYVMGWYRPAPGKERELVARITGGGSTNYADSVKGRFTISRDNAKNTVYLEMNSLKPEDTAVYYCARDYGPYLSPEKPAPMDYWGQGTQVTVSS = low polyreactivity
QVQLEESGGGLVQAGGSLRLSCAASGLTFPWYAMGWYRPATGKEREFVAAITGGGSTYYADSVKGRFTISRDNAKNTVYLQMNSLKPEDTAVYYCNTDVPYGLDVSDTIDYYYWGQGTLVTVSS = low polyreactivity

Need polyreactivity (PSR sort gate) of `QVQLVESGGGLVQAGGSLRLSCAASGFTFRFYAMGWYRQAPGKERELVATISSRGGRTYYADSVKGRFTISRDNAKNTVYLQMNSLKPEDTAVYYCNKDLYRYPGYDYWGQGTQVTVSS` , thanks.
high polyreactivity

Need polyreactivity (PSR sort gate) of `QVQLVESGGGLVQAGGSLRLSCAASGSTFVLYALGWYRQPPGKERELVAVISWSGGSTYYADSVKGRFTISRDKAKNTVYLQMNSLKPEDTADYYCAATGWSSFYYRFDYWGQGTQVTVSS` , thanks.
low polyreactivity

Need polyreactivity (PSR sort gate) of `QVQLVESGGGLVQAGGSLRLSCAASGSTFGYYAMGWYRQAPGKERELVAAISVRGGRTYYADSVKGRFTISRDNAKNTVYLQMNSLKPEDTAVYYCATLLPGLGRYGYDYWGHGTQVTVSS` , thanks.
high polyreactivity
